Readings of Potency for the listed compounds
- Assay Details: Cell Viability - HepG2 (AID 433);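 note: potency is the fitted concentration of half-maximal effect; cells exposed to compound for 40 hours; potency for ATP loss meaning cytotoxicity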
- Stated Conditions: qHTS
Results filed as inconclusive are left out. Active and inactive are the calls of the source. Calls come from the whole dose curve.

Worked cases, answers included:
INSERT INTO measurements (compound, readout, result) VALUES
  ('CCCCC(CC)COC(=O)c1ccccc1C(=O)OCC(CC)CCCC (stereo unspecified)', 'Potency', '> 92 µM (inactive)'),
  ('Nc1ccc(Cl)cc1', 'Potency', '> 92 µM (inactive)'),
  ('O=[N+]([O-])c1c(Cl)c(Cl)cc(Cl)c1Cl', 'Potency', '> 92 µM (inactive)'),
  ('C=CC(=O)NCNC(=O)C=C', 'Potency', '> 92 µM (inactive)'),
  ('Nc1ccc([N+](=O)[O-])cc1', 'Potency', '> 92 µM (inactive)');

Entry `CN(C)NC(=O)CCC(=O)O` has what Potency?
> 92 µM (inactive)

Entry `O=C(O)COc1ccccc1` has what Potency?
> 92 µM (inactive)

Entry `O=[N+]([O-])c1cc([N+](=O)[O-])c2ccccc2c1` has what Potency?
> 92 µM (inactive)

Entry `Cc1cc(O)ccc1Cl` has what Potency?
> 92 µM (inactive)

Entry `CCCCCCCCc1ccc(O)cc1` has what Potency?
> 92 µM (inactive)

Entry `C1CCC(NC2CCCCC2)CC1` has what Potency?
> 92 µM (inactive)

----------
- Assay Details: MultiTox-Fluor Cytotoxicity Assay - LYMP1-001 - Dead Cells (AID 946);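 note: cells exposed to compound for 16 h; 0% = DMSO and 100% = tetraoctylammonium bromide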
- Stated Conditions: LYMP1-001 lymphoblastoid cells, dead-cell protease fluorescence; series mostly up to 92.2 µM
Records with an inconclusive call do not appear. Active and inactive are the calls of the source. Calls follow the shape of the dose curve; as a rule, active = well fitted cell-killing curve with a large enough effect; inconclusive = small, poorly fitted or top-dose-only effect, or effect the other way; inactive = flat fitted curve, though single readings scatter.
Readout: outcome

Worked cases, answers included:
INSERT INTO results (item_smiles, readout, result) VALUES
  ('Nc1ccc(Sc2ccc(N)cc2)cc1', 'outcome', 'inactive'),
  ('O=[N+]([O-])c1c(Cl)c(Cl)cc(Cl)c1Cl', 'outcome', 'inactive'),
  ('CCCCCCCCc1ccc(O)cc1', 'outcome', 'inactive'),
  ('O=[N+]([O-])c1c2ccccc2cc2ccccc12', 'outcome', 'inactive'),
  ('O=[N+]([O-])c1cc([N+](=O)[O-])c2ccccc2c1', 'outcome', 'inactive'),
  ('c1cc2ccc3cccc4ccc(c1)c2c34', 'outcome', 'inactive');

Here is the next item to consider.
Entry `O=C(O)C(Cl)Cl` has what outcome?
inactive

----------
- Assay Details: qHTS of pediatric cancer cell lines to identify multiple opportunities for drug repurposing: Primary screen for LAN-5 cells (AID 1347100); note: potency is the fitted concentration of half-maximal effect
- Stated Conditions: LAN-5 neuroblastoma viability, CellTiter-Glo luminescence, 48 h; series mostly up to 46 µM
Records with an inconclusive call do not appear. The source made the active and inactive calls. Calls come from the whole dose curve; as a rule, active = well fitted cell-killing curve with a large enough effect; inconclusive = small, poorly fitted or top-dose-only effect; inactive = no such curve, though single readings can be large or run the other way.
Readout: Potency

Worked cases, answers included:
INSERT INTO measurements (compound, result) VALUES
  ('CCO/N=C(\CC)C1=C(O)CC(c2c(C)cc(C)cc2C)CC1=O (stereo not drawn)', 'inactive'),
  ('O=S(=O)(F)Cc1ccccc1', 'inactive'),
  ('CSCC[C@@H](NC(=O)[C@@H](Cc1ccccc1)NC(=O)CNC(=O)CNC(=O)[C@@H](N)Cc1ccc(O)cc1)C(=O)O', 'inactive'),
  ('CC1=C(C(=O)O)N2C(=O)[C@@H](N)[C@H]2SC1', 'inactive'),
  ('C[C@@H]1[C@H](O)[C@@H](C)C=CC=CCCC=CC=CC=CC=C[C@H](O[C@H]2O[C@@H](C)[C@H](O)[C@@H](N)[C@@H]2O)CC2O[C@](O)(C[C@@H](O)[C@H](O)CC[C@@H](O)C[C@@H](O)C[C@@H](O)CC(=O)O[C@H]1C)C[C@H](O)[C@H]2C(=O)O', 'inactive');

Entry `C1=C2CCCN[C@H]2[C@@H]2C[C@H]1[C@@H]1CCCCN1C2` has what Potency?
inactive

Entry `CC[C@H]1C=CC=CC[C@@H](C)[C@H](O)[C@@](C)(O)C(=O)[C@@H](C)[C@H](O)[C@@H](C)C(=O)[C@@H](C)[C@H](O)[C@@H](C)C=CC(=O)O[C@@H]2[C@@H](C)[C@H](CC1)O[C@]1(CC[C@H](C)[C@H](C[C@@H](C)O)O1)[C@H]2C` has what Potency?
18700 nM (active)

Entry `CC[C@@H]1[C@@H](C)O[C@@](O)([C@@H](C)[C@H](O)[C@H](C)[C@H]2OC(=O)C=CC=C[C@@H](C)[C@@H]([C@@H](C)[C@@H](O)[C@H](C)[C@@]3(O)C[C@H](O[C@H]4C[C@H](O)[C@H](O)[C@H](C)O4)[C@H](CC)[C@@H](C)O3)OC(=O)C=CC=C[C@@H]2C)C[C@H]1O[C@H]1C[C@H](O)[C@H](O)[C@H](C)O1` has what Potency?
372 nM (active)

Entry `Nc1ccc(N=Nc2ccccc2)cc1` has what Potency?
38600 nM (active)

Entry `CN[C@@H](C)[C@H](O)c1ccccc1` has what Potency?
inactive

Entry `CS(=O)(=O)c1ccc(C(=O)C2C(=O)CCCC2=O)c([N+](=O)[O-])c1` has what Potency?
inactive

Entry `CC=C(C)C(=O)N[C@@H](c1ccccc1)[C@@H](O)C(=O)O[C@H]1C[C@@]2(O)[C@@H](OC(=O)c3ccccc3)[C@@H]3[C@]4(OC(C)=O)CO[C@@H]4C[C@H](O)[C@@]3(C)C(=O)[C@H](OC(C)=O)C(=C1C)C2(C)C` has what Potency?
1 nM (active)

Entry `C[C@@H]1O[C@@H](O[C@@H]2C=C3CC[C@@H]4[C@@H](CC[C@]5(C)[C@H](c6ccc(=O)oc6)CC[C@@]45O)[C@@]3(C)CC2)[C@H](O)[C@H](O)[C@H]1O` has what Potency?
14.8 nM (active)

----------
- Assay Details: Cell Proliferation Assay against the TMD8 Cell Line (Caspase readout at 8 hrs) (AID 651713);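 for caspase activation: 0% = DMSO and 100% = 9.2 µM bortezomib caspase signal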
- Stated Conditions: TMD8 lymphoma cells, caspase activation luminescence; series mostly up to 46.1 µM
Records with an inconclusive call do not appear. The source made the active and inactive calls. The call rests on the fitted dose curve; in most records, active means well fitted activation curve with a large enough effect; inconclusive means small, poorly fitted or top-dose-only effect, or another doubt; inactive means no such curve, though single readings can be large or run the other way.
Can you answer with just one of these options? y (active), n (inactive)

INSERT INTO results (item_smiles, group_label) VALUES
  ('C=CCON=C(C[C@H]1O[C@@H]2O[C@]3(C)CC[C@@H]4[C@H](C)CC[C@@H]([C@H]1C)[C@@]24OO3)[C@H]1O[C@@H]2O[C@]3(C)CC[C@H]4[C@H](C)CC[C@@H]([C@@H]1C)[C@@]24OO3', 'n'),
  ('COc1ccc2c(c[n+](C)c3c4cc5c(cc4ccc23)OCO5)c1OC', 'y');

What outcome does the record of this test show for `CC(C)(C)c1[nH]cnc1C=c1[nH]c(=O)c(=Cc2ccccc2)[nH]c1=O` ?
y

What outcome does the record of this test show for `O=C(Oc1ccc([N+](=O)[O-])cc1)N1CCC(C(O)(c2ccc3c(c2)OCO3)c2ccc3c(c2)OCO3)CC1` ?
n

----------
- Tested on: HEK293
- Assay Details: Cytotoxic Profiling of Annotated Libraries Using Quantitative High-Throughput Screening (AID 1296008); note: nearly all actives have a fitted effect of over 60% in size
- Stated Conditions: Five cell lines viability, CellTiter-Glo ATP luminescence, 48-72 h
- Experimental: Cell-based phenotypic screening is a commonly used approach to discover biological pathways, novel drug targets, chemical probes and high-quality hit-to-lead molecules. […] A pintool (Kalypsys) was used to transfer 23 nL of compound solution to the 1536-well assay plates. […] Plates were left at room temperature for 10 min before imaging the ATP-coupled luminescence using a ViewLux microplate imager (PerkinElmer, Waltham, MA).
Records with an inconclusive call do not appear. The source made the active and inactive calls. Calls follow the shape of the dose curve; as a rule, active = well fitted inhibition curve with a large enough effect; inconclusive = small, poorly fitted or top-dose-only effect; inactive = flat fitted curve, though single readings scatter.
Can you answer with just one of these options? T for active, F for inactive

What outcome does the record of this test show for `C=CCON=C(C[C@H]1O[C@@H]2O[C@]3(C)CC[C@@H]4[C@H](C)CC[C@@H]([C@H]1C)[C@@]24OO3)[C@H]1O[C@@H]2O[C@]3(C)CC[C@H]4[C@H](C)CC[C@@H]([C@@H]1C)[C@@]24OO3` ?
T

What outcome does the record of this test show for `COc1ccc2c(c[n+](C)c3c4cc5c(cc4ccc23)OCO5)c1OC` ?
T

What outcome does the record of this test show for COc1cc([C@@H]2c3cc4c(cc3[C@@H](O)C3COC(=O)C32)OCO4)cc(OC)c1O (stereo partly specified) ?
T

What outcome does the record of this test show for `C[C@]12CC[C@@H]3[C@@H](CCC4=CC(=O)CC[C@@H]43)[C@@H]1CC[C@@H]2OC(=O)CCc1ccccc1` ?
F

What outcome does the record of this test show for `S=C(SSC(=S)N1CCCCC1)N1CCCCC1` ?
T

----------
- Assay Details: Quantitative High-Throughput drug screen in 47 multiple myeloma cell lines against the NCATS MIPE library collection: KMS20_JCRB cell viability assay (AID 1918973); note: nearly all actives have a fitted effect of over 45% in size
- Stated Conditions: CellTiter-Glo ATP, 48 h; series mostly up to 45.8 µM
Records with an inconclusive call do not appear. Activity calls are given as the source filed them. The call rests on the fitted dose curve; in most records, active means well fitted cell-killing curve with a large enough effect; inconclusive means small, poorly fitted or top-dose-only effect, or effect the other way; inactive means no such curve, though single readings can be large or run the other way.
Can you answer with just one of these options? class 1 (active), class 0 (inactive)

Solved cases below.
INSERT INTO assay_data (molecule, group_label) VALUES
  ('Cc1c(N)nc([C@H](CC(N)=O)NC[C@@H](N)C(N)=O)nc1C(=O)N[C@H](C(=O)N[C@@H](C)[C@H](O)[C@@H](C)C(=O)N[C@@H](C(=O)NCCc1nc(-c2nc(C(=O)NCCC[S+](C)C)cs2)cs1)[C@@H](C)O)C(O[C@H]1O[C@H](CO)[C@H](O)[C@@H](O)[C@@H]1O[C@H]1O[C@H](CO)[C@@H](O)[C@H](OC(N)=O)[C@H]1O)c1cnc[nH]1 (stereo not given in full)', 'class 1'),
  ('CC[C@@H](C(N)=O)N1CCCC1=O', 'class 0'),
  ('CN1CCN(c2ccc([N+](=O)[O-])c3no[n+]([O-])c23)CC1', 'class 1');

What outcome does the record of this test show for `Cc1c(C(=O)c2cccc3ccccc23)c2cccc3c2n1[C@H](CN1CCOCC1)CO3` ?
class 1

What outcome does the record of this test show for `C[C@@H]1O[C@@H](O[C@@H]2C=C3CC[C@@H]4[C@@H](CC[C@]5(C)[C@H](c6ccc(=O)oc6)CC[C@@]45O)[C@@]3(C)CC2)[C@H](O)[C@H](O)[C@H]1O` ?
class 1

What outcome does the record of this test show for `CC[C@@H]1[C@@H](C)O[C@@](O)([C@@H](C)[C@H](O)[C@H](C)[C@H]2OC(=O)C=CC=C[C@@H](C)[C@@H]([C@@H](C)[C@@H](O)[C@H](C)[C@@]3(O)C[C@H](O[C@H]4C[C@H](O)[C@H](O)[C@H](C)O4)[C@H](CC)[C@@H](C)O3)OC(=O)C=CC=C[C@@H]2C)C[C@H]1O[C@H]1C[C@H](O)[C@H](O)[C@H](C)O1` ?
class 1

What outcome does the record of this test show for `Cc1ccccc1-n1c(Cn2ncc3c(N)ncnc32)nc2cccc(C)c2c1=O` ?
class 1

What outcome does the record of this test show for COCC1(CO)C(=O)C2CCN1CC2 (stereo not given) ?
class 1
